# assay-method-text: in vivo
# Set-up: species or system mice
# conditions: male, NODSCID 1L2RγKO, mouse, iv, total radioactivity, Thyroid uptake
Listed compounds paired with reported tissue uptake at 1 h
observable: tissue uptake at 1 h (%ID/g)

O=C(O)CCC[C@H](NC(=O)N[C@@H](CCCCNC(=O)[C@H](Cc1c2ccccc2cc2ccccc12)NC(=O)[C@H]1CC[C@H](CNC(=O)[C@H](CCCCNC(=O)CN2CCN(CC(=O)O)CCN(CC(=O)O)CCN(CC(=O)O)CC2)NC(=O)CNC(=O)CCCc2ccc(Cl)cc2)CC1)C(=O)O)C(=O)O [177Lu-HTK03153, metal not drawn]
4.8
COc1ccc(CCCC(=O)NCC(=O)N[C@@H](CCCCNC(=O)CN2CCN(CC(=O)O)CCN(CC(=O)O)CCN(CC(=O)O)CC2)C(=O)NC[C@H]2CC[C@H](C(=O)N[C@@H](Cc3c4ccccc4cc4ccccc34)C(=O)NCCCC[C@H](NC(=O)N[C@@H](CSCC(=O)O)C(=O)O)C(=O)O)CC2)cc1 [177Lu-HTK04048, metal not drawn]
3.79

====

# assay-method-text: in vivo
# Set-up: species or system mice
# conditions: male, NODSCID 1L2RγKO, mouse, iv, total radioactivity, Heart uptake
observable: tissue uptake at 72 h (%ID/g)

COc1ccc(CCCC(=O)NCC(=O)N[C@@H](CCCCNC(=O)CN2CCN(CC(=O)O)CCN(CC(=O)O)CCN(CC(=O)O)CC2)C(=O)NC[C@H]2CC[C@H](C(=O)N[C@@H](Cc3c4ccccc4cc4ccccc34)C(=O)NCCCC[C@H](NC(=O)N[C@@H](CSCC(=O)O)C(=O)O)C(=O)O)CC2)cc1 [177Lu-HTK04048, metal not drawn]
0.16
COc1ccc(CCCC(=O)NCC(=O)N[C@@H](CCCCNC(=O)CN2CCN(CC(=O)O)CCN(CC(=O)O)CCN(CC(=O)O)CC2)C(=O)NC[C@H]2CC[C@H](C(=O)N[C@@H](Cc3c4ccccc4cc4ccccc34)C(=O)NCCCC[C@H](NC(=O)N[C@@H](CCCC(=O)O)C(=O)O)C(=O)O)CC2)cc1 [177Lu-HTK03170, metal not drawn]
0.09
COc1ccc(CCCC(=O)NCC(=O)N[C@@H](CCCCNC(=O)CN2CCN(CC(=O)O)CCN(CC(=O)O)CCN(CC(=O)O)CC2)C(=O)NC[C@H]2CC[C@H](C(=O)N[C@@H](Cc3c4ccccc4cc4ccccc34)C(=O)NCCCC[C@H](NC(=O)N[C@@H](COCC(=O)O)C(=O)O)C(=O)O)CC2)cc1 [177Lu-HTK04028, metal not drawn]
0.12
O=C(O)CCC[C@H](NC(=O)N[C@@H](CCCCNC(=O)[C@H](Cc1c2ccccc2cc2ccccc12)NC(=O)[C@H]1CC[C@H](CNC(=O)CN2CCN(CC(=O)O)CCN(CC(=O)O)CCN(CC(=O)O)CC2)CC1)C(=O)O)C(=O)O [177Lu-HTK03149, metal not drawn]
0.06
O=C(O)CCC[C@H](NC(=O)N[C@@H](CCCCNC(=O)[C@H](Cc1c2ccccc2cc2ccccc12)NC(=O)[C@H]1CC[C@H](CNC(=O)[C@H](CCCCNC(=O)CN2CCN(CC(=O)O)CCN(CC(=O)O)CCN(CC(=O)O)CC2)NC(=O)CNC(=O)CCCc2ccc(Cl)cc2)CC1)C(=O)O)C(=O)O [177Lu-HTK03153, metal not drawn]
0.68
